Where do these numbers come from? They come from patent US8026219B2.

tested on: erythrocytes from fresh human blood; details: 150 μM peptide, 5% erythrocytes, 1 h at 37° C., relative to 200 μM melittin
Starred links: 1 amine or outer side, 2 acyl side, 3 side chain; linkers in the order of their positions; H or OH if unused. Non-standard residues stand in square brackets, D forms with d. Residues, ends and D or L forms follow the SMILES beside them. X1 = O=C([C@H](Cc1c[nH]c2ccccc12)N(Cc1ccccc1)[*:1])[*:2]
measured property: % Haemolysis 150 μM (%)

>>> experimental_result("CC[C@H](C)[C@H](NC(=O)[C@H](CCCCN)NC(=O)[C@H](CCCCN)NC(=O)[C@H](Cc1ccccc1)NC(=O)[C@H](CC(C)C)NC(=O)[C@H](CCCCN)NC(=O)[C@H](CCCCN)NC(C)=O)C(=O)N[C@@H](CC(C)C)C(=O)N[C@@H](CCCCN)C(=O)N[C@@H](Cc1c[nH]c2ccccc12)C(=O)N[C@@H](CC(C)C)C(N)=O")
82
>>> experimental_result("CC[C@H](C)[C@H](NC(=O)[C@H](CCCCN)NC(=O)[C@H](CCCCN)NC(=O)[C@H](Cc1ccccc1)NC(=O)[C@H](CC(C)C)NC(=O)[C@H](CCCCN)NC(=O)[C@H](CCCCN)NC(C)=O)C(=O)N[C@@H](CC(C)C)C(=O)N[C@@H](CCCCN)C(=O)N[C@@H](Cc1ccccc1)C(=O)N[C@@H](CC(C)C)C(N)=O")
40
>>> experimental_result("CC[C@H](C)[C@H](NC(=O)[C@H](CCCCN)NC(=O)[C@H](CCCCN)NC(=O)[C@H](Cc1ccccc1)NC(=O)[C@H](CC(C)C)NC(=O)[C@H](CCCCN)NC(=O)[C@H](Cc1c[nH]c2ccccc12)NCc1ccccc1)C(=O)N[C@@H](CC(C)C)C(=O)N[C@@H](CCCCN)C(=O)N[C@H](C(=O)N[C@@H](CC(C)C)C(N)=O)C(C)C [BP011] (H-[X1]KLFKKILKVL-NH2)")
96

* * *

system: erythrocytes from fresh human blood; details: 250 μM peptide, 5% erythrocytes, 1 h at 37° C., relative to 200 μM melittin
Residues, ends and D or L forms follow the SMILES beside them. *: point of attachment. Bz = O=C(c1ccccc1)*
measured property: % Haemolysis 250 μM (%)

>>> experimental_result("CC[C@H](C)[C@H](NC(=O)[C@H](CCCCN)NC(=O)[C@H](CCCCN)NC(=O)[C@H](Cc1ccccc1)NC(=O)[C@H](CC(C)C)NC(=O)[C@H](CCCCN)NC(=O)[C@H](Cc1c[nH]c2ccccc12)NC(=O)c1ccccc1)C(=O)N[C@@H](CC(C)C)C(=O)N[C@@H](CCCCN)C(=O)N[C@H](C(=O)N[C@@H](CC(C)C)C(N)=O)C(C)C [BP010] (Bz-WKLFKKILKVL-NH2)")
76
>>> experimental_result("CC[C@H](C)[C@H](NC(=O)[C@H](CCCCN)NC(=O)[C@H](CCCCN)NC(=O)[C@H](Cc1ccccc1)NC(=O)[C@H](CC(C)C)NC(=O)[C@H](CCCCN)NC(=O)[C@H](CCCCN)NC(C)=O)C(=O)N[C@@H](CC(C)C)C(=O)N[C@@H](CCCCN)C(=O)N[C@@H](Cc1ccc(O)cc1)C(=O)N[C@@H](CC(C)C)C(N)=O")
62

* * *

tested on: erythrocytes from fresh human blood; details: 150 μM peptide, 5% erythrocytes, 1 h at 37° C., relative to 200 μM melittin
measured property: % Haemolysis 150 μM (%)

>>> experimental_result("CC[C@H](C)[C@H](NC(=O)[C@H](CCCCN)NC(=O)[C@H](CCCCN)NC(=O)[C@H](Cc1ccccc1)NC(=O)[C@H](CC(C)C)NC(=O)[C@H](CCCCN)NC(=O)[C@H](CCCCN)NS(=O)(=O)c1ccc(C)cc1)C(=O)N[C@@H](CC(C)C)C(=O)N[C@@H](CCCCN)C(=O)N[C@H](C(=O)N[C@@H](CC(C)C)C(N)=O)C(C)C")
70
>>> experimental_result("CC[C@H](C)[C@H](NC(=O)[C@H](CCCCN)NC(=O)[C@H](CCCCN)NC(=O)[C@H](Cc1ccccc1)NC(=O)[C@H](CC(C)C)NC(=O)[C@H](CCCCN)NC(=O)[C@@H](N)CCCCN)C(=O)N[C@@H](CC(C)C)C(=O)N[C@@H](CCCCN)C(=O)N[C@@H](Cc1ccccc1)C(=O)N[C@@H](CC(C)C)C(N)=O")
34

* * *

target: Proteinase K (Parengyodontium album, UniProt P06873); assay: in vitro; details: Proteinase K (1 μg/ml), pH 7.6
Sequence (P06873 106-384): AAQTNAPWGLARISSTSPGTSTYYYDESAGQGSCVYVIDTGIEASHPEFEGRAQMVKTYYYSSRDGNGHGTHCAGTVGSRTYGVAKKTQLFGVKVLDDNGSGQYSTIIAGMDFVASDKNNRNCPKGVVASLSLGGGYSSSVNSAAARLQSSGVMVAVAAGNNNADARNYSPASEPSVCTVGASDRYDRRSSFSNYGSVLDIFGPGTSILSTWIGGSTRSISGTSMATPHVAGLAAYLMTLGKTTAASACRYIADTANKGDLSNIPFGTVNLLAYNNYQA
No end group written: not given here.
measured property: metabolised at 0.75 h, 50 μg/ml (%)

>>> experimental_result("WKLFKKILKVL-NH2 [Comparative example, reference compound]")
100
>>> experimental_result("Ac-WKLFKKILKVL-NH2 [BP008]")
100
>>> experimental_result("LKLFKKILKVL-NH2 [BP033]")
100
>>> experimental_result("WKLFKKILKFL-NH2 [BP019]")
87

* * *

Reported metabolised at 0.75 h, 50 μg/ml values for the following compounds.
target: Proteinase K (Parengyodontium album, UniProt P06873); experiment: in vitro; conditions: Proteinase K (1 μg/ml), pH 7.6
measured property: metabolised at 0.75 h, 50 μg/ml (%)

>>> experimental_result("CC[C@H](C)[C@H](NC(=O)[C@H](CCCCN)NC(=O)[C@H](CCCCN)NC(=O)[C@H](Cc1ccccc1)NC(=O)[C@H](CC(C)C)NC(=O)[C@H](CCCCN)NC(=O)[C@@H](N)Cc1c[nH]c2ccccc12)C(=O)N[C@@H](CC(C)C)C(=O)N[C@@H](CCCCN)C(=O)N[C@@H](Cc1ccc(O)cc1)C(=O)N[C@@H](CC(C)C)C(N)=O [BP020]")
85
>>> experimental_result("CC[C@H](C)[C@H](NC(=O)[C@H](CCCCN)NC(=O)[C@H](CCCCN)NC(=O)[C@H](Cc1ccccc1)NC(=O)[C@H](CC(C)C)NC(=O)[C@H](CCCCN)NC(=O)[C@@H](N)CCCCN)C(=O)N[C@@H](CC(C)C)C(=O)N[C@@H](CCCCN)C(=O)N[C@@H](Cc1ccccc1)C(=O)N[C@@H](CC(C)C)C(N)=O [BP076]")
49
>>> experimental_result("CC[C@H](C)[C@H](NC(=O)[C@H](CCCCN)NC(=O)[C@H](CCCCN)NC(=O)[C@H](Cc1ccccc1)NC(=O)[C@H](CC(C)C)NC(=O)[C@H](CCCCN)NC(=O)[C@@H](N)CCCCN)C(=O)N[C@@H](CC(C)C)C(=O)N[C@@H](CCCCN)C(=O)N[C@@H](Cc1ccc(O)cc1)C(=O)N[C@@H](CC(C)C)C(N)=O [BP100]")
60

* * *

tested on: erythrocytes from fresh human blood; settings: 150 μM peptide, 5% erythrocytes, 1 h at 37° C., relative to 200 μM melittin
Residues, ends and D or L forms follow the SMILES beside them. *: point of attachment. Bz = O=C(c1ccccc1)*
measured property: % Haemolysis 150 μM (%)

>>> experimental_result("CC[C@H](C)[C@H](NC(=O)[C@H](CCCCN)NC(=O)[C@H](CCCCN)NC(=O)[C@H](Cc1ccccc1)NC(=O)[C@H](CC(C)C)NC(=O)[C@H](CCCCN)NC(=O)[C@H](CCCCN)NS(=O)(=O)c1ccc(C)cc1)C(=O)N[C@@H](CC(C)C)C(=O)N[C@@H](CCCCN)C(=O)N[C@@H](Cc1ccc(O)cc1)C(=O)N[C@@H](CC(C)C)C(N)=O")
79
>>> experimental_result("CC[C@H](C)[C@H](NC(=O)[C@H](CCCCN)NC(=O)[C@H](CCCCN)NC(=O)[C@H](Cc1ccccc1)NC(=O)[C@H](CC(C)C)NC(=O)[C@H](CCCCN)NC(=O)[C@H](Cc1c[nH]c2ccccc12)NC(=O)c1ccccc1)C(=O)N[C@@H](CC(C)C)C(=O)N[C@@H](CCCCN)C(=O)N[C@H](C(=O)N[C@@H](CC(C)C)C(N)=O)C(C)C [BP010] (Bz-WKLFKKILKVL-NH2)")
77

* * *

tested on: erythrocytes from fresh human blood; settings: 250 μM peptide, 5% erythrocytes, 1 h at 37° C., relative to 200 μM melittin
Starred links: 1 amine or outer side, 2 acyl side, 3 side chain; linkers in the order of their positions; H or OH if unused. Non-standard residues stand in square brackets, D forms with d. Residues, ends and D or L forms follow the SMILES beside them. *: point of attachment. X1 = O=C([C@H](Cc1c[nH]c2ccccc12)N(Cc1ccccc1)[*:1])[*:2]; Bz = O=C(c1ccccc1)*
So basically: is % Haemolysis 250 μM under 80%? Then rule met. Not under? Then rule not met.

>>> class_name("CC[C@H](C)[C@H](NC(=O)[C@H](CCCCN)NC(=O)[C@H](CCCCN)NC(=O)[C@H](Cc1ccccc1)NC(=O)[C@H](CC(C)C)NC(=O)[C@H](CCCCN)NC(=O)[C@H](Cc1ccc(O)cc1)NC(=O)c1ccccc1)C(=O)N[C@@H](CC(C)C)C(=O)N[C@@H](CCCCN)C(=O)N[C@@H](CCCCN)C(=O)N[C@@H](CC(C)C)C(N)=O [BP122] (Bz-YKLFKKILKKL-NH2)")
"rule not met"
>>> class_name("CC[C@H](C)[C@H](NC(=O)[C@H](CCCCN)NC(=O)[C@H](CCCCN)NC(=O)[C@H](Cc1ccccc1)NC(=O)[C@H](CC(C)C)NC(=O)[C@H](CCCCN)NC(=O)[C@@H](N)Cc1ccc(O)cc1)C(=O)N[C@@H](CC(C)C)C(=O)N[C@@H](CCCCN)C(=O)N[C@@H](Cc1ccc(O)cc1)C(=O)N[C@@H](CC(C)C)C(N)=O [BP095]")
"rule met"
>>> class_name("CC[C@H](C)[C@H](NC(=O)[C@H](CCCCN)NC(=O)[C@H](CCCCN)NC(=O)[C@H](Cc1ccccc1)NC(=O)[C@H](CC(C)C)NC(=O)[C@H](CCCCN)NC(=O)[C@H](CCCCN)NC(=O)c1ccccc1)C(=O)N[C@@H](CC(C)C)C(=O)N[C@@H](CCCCN)C(=O)N[C@H](C(=O)N[C@@H](CC(C)C)C(N)=O)C(C)C [BP031]")
"rule met"
>>> class_name("CC[C@H](C)[C@H](NC(=O)[C@H](CCCCN)NC(=O)[C@H](CCCCN)NC(=O)[C@H](Cc1ccccc1)NC(=O)[C@H](CC(C)C)NC(=O)[C@H](CCCCN)NC(=O)[C@H](CCCCN)NC(C)=O)C(=O)N[C@@H](CC(C)C)C(=O)N[C@@H](CCCCN)C(=O)N[C@@H](Cc1c[nH]c2ccccc12)C(=O)N[C@@H](CC(C)C)C(N)=O [BP053]")
"rule not met"
>>> class_name("CC[C@H](C)[C@H](NC(=O)[C@H](CCCCN)NC(=O)[C@H](CCCCN)NC(=O)[C@H](Cc1ccccc1)NC(=O)[C@H](CC(C)C)NC(=O)[C@H](CCCCN)NC(=O)[C@H](Cc1c[nH]c2ccccc12)NCc1ccccc1)C(=O)N[C@@H](CC(C)C)C(=O)N[C@@H](CCCCN)C(=O)N[C@H](C(=O)N[C@@H](CC(C)C)C(N)=O)C(C)C [BP011] (H-[X1]KLFKKILKVL-NH2)")
"rule not met"
>>> class_name("CC[C@H](C)[C@H](NC(=O)[C@H](CCCCN)NC(=O)[C@H](CCCCN)NC(=O)[C@H](Cc1ccccc1)NC(=O)[C@H](CC(C)C)NC(=O)[C@H](CCCCN)NC(=O)[C@H](Cc1ccc(O)cc1)NS(=O)(=O)c1ccc(C)cc1)C(=O)N[C@@H](CC(C)C)C(=O)N[C@@H](CCCCN)C(=O)N[C@@H](Cc1ccc(O)cc1)C(=O)N[C@@H](CC(C)C)C(N)=O [BP097]")
"rule not met"
